# Test system: K562
# TEST_PROTOCOL: NCI tumour cell line growth inhibition, 48 h
The source made the active and inactive calls. Cut-off read from the data, not from the text of the source: active = GI50 up to about 1.1 µM and inactive = higher.

{"COMPOUND": "CCC12CCC(O)C1N(C)CCC2Sc1ccccc1 (stereo not given)", "EXPERIMENTAL_SYSTEM": "K562", "GI50": "37.4 µM (inactive)"}
{"COMPOUND": "O=C1CC(c2ccccc2)Oc2ccccc21 (stereo not given)", "EXPERIMENTAL_SYSTEM": "K562", "GI50": "12.6 µM (inactive)"}
{"COMPOUND": "COC(=O)C[C@H](COCc1ccccc1)NC(=O)C[C@H](COCc1ccccc1)NC(=O)C[C@H](COCc1ccccc1)NC(=O)OC(C)(C)C", "EXPERIMENTAL_SYSTEM": "K562", "GI50": "> 100 µM (inactive)"}
{"COMPOUND": "OC1(c2ccccc2)C2CC=CC2C1(c1ccccc1)c1ccccc1 (stereo not given)", "EXPERIMENTAL_SYSTEM": "K562", "GI50": "35.6 µM (inactive)"}
{"COMPOUND": "CCN(CC)CCN(C)CCc1ccc(Br)cc1", "EXPERIMENTAL_SYSTEM": "K562", "GI50": "25.7 µM (inactive)"}
